Numbers sourced from the supplement of paper PMC9170038.

# Tested on: K4 kissing-loop RNA reporter;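 further: bound reporter read as fluorescence of individual clusters on recovered sequencing chips by microscopy, with normalized cluster intensities fitted with a binding model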
# assaySummary: apparent KD of K4 kissing-loop reporter; higher = weaker reporter binding
# experimentalConditions: Eterna round: R107; input ligand: theophylline 20 uM
propertyMeasured: apparent KD of K4 kissing-loop reporter (nM)
Supply the numeric figure in nM, leaving out any unit text.

GGUAGCAUGGCGGCCGCCACUUUUUUAGAUACCUACACAGAAAGCAGUGAUGUUGCUUGGUGGUAAAGGACCGGGCCAUGCUACC ... 137

Q) // fetch apparent KD of K4 kissing-loop reporter given entry CGUGCCCAGCCGGAUACCAGUGACCCGCUGGGAACCGCGGGCCCAGAGUGAUGUUCGGGACACCCUUGGCAGCCGCCUGGGCGGC [#2 Same State - Theophylline B Attempt #12 (HarryS)]
A) 440

Q) Return value of apparent KD of K4 kissing-loop reporter for input AAGCAGUCACGCGAAGCCAUCGAAGAUGGACGAGGACCGGUACGGCCGCCACUCGGAGUGAUGUUCCGAAGACUGCAAAAUAAAA , no commentary.
A) 599

====

apparent KD of MS2 coat protein listing for selected sequences.
# Tested on: MS2 coat protein
# assaySummary: apparent KD of MS2 coat protein; designed switch direction (-1 OFF switch, 1 ON switch): -1; higher = weaker reporter binding
# experimentalConditions: Eterna round: R95; input ligand: microRNA oligo, concentration not stated
Output spec: scalar in nM, unitless text.

Recorded apparent KD of MS2 coat protein, per entry:
CCUCGACAUGAGGAUCACCCAUGUCAGGAUAUUGUGUUUUGGGUUUUUUACCUUUAGGCAAGAAGGGAUGUGUG [LRO-Excl1-17] (puzzle: Exclusion 1) ... 16.1
CAUGAUCUUCGGAUCAUGUACAUGAGGAUCACCCAUGUUACGAGCAGAUCUUCAUACAAGCUUUUUGCUCGUCUUAU [Sensor v3 - Turn-off variant 1 - 34] (puzzle: Sensor v3, turn-off variant 1) ... 64.9
CUUCAGUGAGGAUAUGGCAUGCGCUGAUAAGCGCUCUCACGCCAGAAGGCACAUGAGGAUCACCCAUGUAAAAC [Eddionce] (puzzle: Exclusion 4) ... 41.3
UUCAGACAUGAGGAUCACCCAUGUGAGGAUAUGAUGCAGCAGUGGUCUACGCUGUGCAUCAGAAGGCACAUGUG (puzzle: Exclusion 1) ... 99.6

Q) Read the entry CCAGCGUAUGUGAGGAUAUGCUGGUCCUUGGAUCAGCAGAAGGCACAUGAGGAUCACCCAUGUGGAGACGUUGG [JL bmx4 3.42] (puzzle: Brourd's mod of Exclusion 4) and write its reported apparent KD of MS2 coat protein.
A) 18

====

# Tested on: MS2 coat protein
# assaySummary: apparent KD of MS2 coat protein, switch OFF state (with FMN for OFF switches, without FMN for ON switches); designed switch direction (-1 OFF switch, 1 ON switch): 1; higher = weaker reporter binding
# experimentalConditions: FMN input: 0 or 200 uM; Eterna round: R93 (includes R88 designs)
propertyMeasured: apparent KD of MS2 coat protein (nM)
Return type: number; implicit unit nM.

Previously resolved entries follow.
UGAAAACAUGAGGAUCACCCAUGUCUAGGAAAUCAAGGAUAUGGGCCGGCAAUAGGCGGGCCAGAAGGUGAGAAAU [Arisati] ... 144
GAAAAACAUGAGGAUCACCCAUGUAAAAAUAUGGGAGGAUAUUGAAACACGAAAGUCAAACAAGAAGGCCUAAAAG [Garnet 3] ... 147
AGGAAACAUGAGGAUCACCCAUGUAAAAAAGUGGGAGGAUAUACUAGAAGAAACAAAAUAGUAGAAGGCCUAAAAA [75%, Ex sub1, 32] ... 108
AAAAAACAUGAGGAUCACCCAUGUCGAAAGACAUGAGGAUAUGUGUGGAAACCAUACUAUACAGAAGGCAUAAAAA [SS1 - 1009] ... 66.1
GAAAAACAUGAGGAUCACCCAUGUGAGAACAUGGGAGGAUAUACGAGGACGAAAGUCAAAGUAGAAGGCCUAAGAG [Garnet 86] ... 30

Q) Return apparent KD of MS2 coat protein (reported value) for this sequence: AACAAUCUAUCUGAGGAUAUAUGUCAAAAGACAUGAGGAUCACCCAUGUAAAAACAUGAAAAAUAAUAGAAGGCAGAUAGAUUGA [SS2: 1140]
A) 52.4

Q) Identify the reported apparent KD of MS2 coat protein for the following entry. GGAAAGAAAAGCGAGGAUAUGCUAGGUAAUACAUGAGGAUCACCCAUGUUUUUUUUUAACAAAUUGCAGAAGGCGCAAGAAAGAAA [Ungainly]
A) 18.2

Q) Output apparent KD of MS2 coat protein of AGAAAUAAAAUGGAGGAUAUCCAAAAGAAAACAUGAGGAUCACCCAUGUAAAAGAAAAUAAAAUGGGAGAAGGCCAAAAAUAAAG
A) 47.2

Q) Identify measured apparent KD of MS2 coat protein associated with AAUAGACAUGAGGAUCACCCAUGUAGAAUUAUGGGAGGAUAUACAAAGACGAGAGUCAGAGUAGAAGGCCUAGGAC [salish99-ss1-151]
A) 54

Q) Read off the recorded apparent KD of MS2 coat protein for AAAAAACAUGAGGAUCACCCAUGUAAUAAAACGUCAGGAUAUUGAUUUUAUUAUUUAUUGCGAGAAGGGACAAAAA [Same State 1 - Omei 3]
A) 28.6
